# merged literature set: IC50 with Chymase (Homo sapiens, UniProt P23946)
Threshold 1 nM: IC50 strictly smaller gives TRUE, otherwise FALSE.

Worked examples follow.
CS(=O)(=O)O.Nc1cccc(S(=O)(=O)n2c(=O)[nH]c3cc(Cl)ccc3c2=O)c1    FALSE
Nc1cc(S(=O)(=O)n2c(=O)[nH]c3cc(Cl)ccc3c2=O)ccc1Cl    FALSE
O=C(O)c1cc(S(=O)(=O)n2c(=O)[nH]c3cc(Cl)ccc3c2=O)ccc1O    FALSE
COc1ccc2c(n1)n([C@H](CC(=O)O)c1ccccc1)c(=O)n2Cc1cn(C)c2cc(C)cc(C)c12    TRUE
CC[C@H](C(=O)O)n1c(=O)c2ccccc2n(Cc2cn(C)c3cccc(C)c23)c1=O    FALSE

Ask | Given Cc1cccc2c1c(Cn1c(=O)n([C@H](CC(=O)O)c3ccc(Cl)cc3)c3nc(C#N)ccc31)cn2C , is recorded IC50 strictly lower than 1 nM?
Reply | TRUE

Ask | Would you kindly verify if IC50 of CCC(C(=O)O)n1c(=O)c2ccccc2n(Cc2cn(C)c3cccc(C)c23)c1=O (centres unmarked) is strictly less than 1 nM?
Reply | FALSE

Ask | Is the reported IC50 for CCCC[C@H](C(=O)O)n1c(=O)c2ccccc2n(Cc2nsc3cc(C)cc(C)c23)c1=O strictly below 1 nM?
Reply | FALSE

====

Study the reported IC50 values for Chymase (Homo sapiens) given below; they originate from different publications.
Mark y for IC50 under 3 nM, n if at or over.

CC[C@@H](CC(=O)O)n1c(=O)c2ccccc2n(Cc2cn(C)c3cccc(C)c23)c1=O    n
Cc1cc(C)c2c(Cn3c(=O)n([C@H](CC(=O)O)c4ccc(Cl)cc4)c4nc(C)ccc43)cn(C)c2c1    y
Cc1cc(C)c2c(Cn3c(=O)n([C@H](CC(=O)O)c4ccc(Cl)cc4)c4nc(C#N)ccc43)cn(C)c2c1    y
CCCC[C@@H](C(=O)O)n1c(=O)c2cc(OC)ccc2n(Cc2cn(C)c3cccc(C)c23)c1=O    y
Cc1cc(C)c2c(Cn3c(=O)n([C@H](CC(=O)O)c4cccc(Cl)c4)c4nc(C)ccc43)nsc2c1    n
COc1ccc([C@@H](CC(=O)O)n2c(=O)n(Cc3cn(C)c4cccc(C)c34)c3ccc(C)nc32)cc1    y

Ask | Consider the molecule O=C(Cn1c(-c2ccccc2)ncc(CO)c1=O)NC(Cc1ccccc1)C(=O)C(=O)CCCOc1ccccn1 (centres unmarked) . Is its IC50 strictly less than 3 nM?
Reply | n

Ask | Input COc1ccc2c(=O)n(S(=O)(=O)c3ccc(C(=O)O)c(N)c3)c(=O)[nH]c2c1 ; condition: IC50 strictly below 3 nM. Does it hold?
Reply | n

Ask | IC50 strictly < 3 nM for this molecule? Cc1cccc2c1c(Cn1c(=O)n([C@H](C(=O)O)c3ccccc3)c(=O)c3ccccc31)cn2C
Reply | y
